Data origin: patent US20240317871A1

- experimental.system: T1, His-tagged human HVEM (human, UniProt Q92956 39-202, limits assumed)
- T1 construct: Analyte of the BLI assay, 200 nM in PBS; not shown: His tag
- T1 sequence (looked up): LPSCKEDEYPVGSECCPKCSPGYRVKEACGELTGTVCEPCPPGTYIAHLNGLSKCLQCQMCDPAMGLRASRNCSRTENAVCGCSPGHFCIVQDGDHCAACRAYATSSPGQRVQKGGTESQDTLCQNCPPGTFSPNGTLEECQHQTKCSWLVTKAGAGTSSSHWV
- measurement.description: BLI OctetRed96, mAb captured, 200 nM His-HVEM
- Method: Binding of antibodies to HVEM may also be determined by bio-layer interferometry (BLI) on an OctetRed96@ system (Sartorius). (See http://www.fortebio.com/bli_technology.html for general description of a BLI assay.) For this experiment, murine anti-human HVEM antibodies were captured from culture supernatant using anti-mouse IgG Fc capture and immobilized to dip and read biosensors. […] Probes were dipped into PBS assay buffer and the dissociation rate (koff) was measured. […]
measurement.name: kon (M⁻¹ s⁻¹)

INSERT INTO assay_data (binder, unit_info, observed_value) VALUES
  ('Ab_080 (H5S20-27A23A) (antibody, V domains shown, also called Ab_80) VH: EVQLQQSGTVLARPGASVKMSCKASGYSFTSYWMHWLKQRPGQGLEWIGAIYPGNSDTVFNQKFKGKAKLTAVTSATTAYMELSSLTNEDSAVYYCTKEPRTIEGAWFTYWGQGTLVTVSA VL: DIVMTQSPSSLTVPAGEKVTMSCKSSQSLLNSENQKNYLTWYQQKPGQPPKLLIYWASTRESGVPDRFTGSGSGTDFTLTISSVQAEDLAVYYCQSDYSYPLTFGAGTKLELK', 'M⁻¹ s⁻¹', 162000),
  ('Ab_055 (H5S19-1A1A) (antibody, V domains shown, also called Ab_55) VH: DVQLQESGPGLVKPSQSLSLTCTVTGYSITSDYAWNWIRQFPGNKLEWMGYIAYSGGTSYSPSLKSRISITRDTSKNQFFLQLNSVTTEDTATYYCVYFKYGGAFAYWGQGTLVTVSA VL: NIVLTQSPASLAVSLGQRATISCRASESVDSYGNSLMHWYQQKPGQPPKLLIYLASNLESGVPARFSGSGSRTDFTLTIDPVEADDAATYYCQQNNEDPPTFGGGTKLEI', 'M⁻¹ s⁻¹', 30200),
  ('Ab_009 (H5S14-8A7A) (antibody, V domains shown, also called Ab_9) VH: EVKLVESGGDLVKPGGSLKLSCAASGFTFSNYAMSWVRQTPEKRLEWVASISTGGTTSYYSDSVKGRFTISRDNARNILYLQMSSLRSEDTAMYYCARGGGGNYFWFTYWGQGTLVTISA VL: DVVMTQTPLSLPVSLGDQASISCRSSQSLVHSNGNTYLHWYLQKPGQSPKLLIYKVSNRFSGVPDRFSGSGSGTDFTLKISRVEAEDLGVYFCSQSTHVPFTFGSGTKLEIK', 'M⁻¹ s⁻¹', 497000);
